# reported melting point; entries follow

compound: O=C(O)C=C1C2CCC1CN(Cc1ccc3c(c1)Nc1nccnc1S3)C2
melting point: 268 to 271 °C
--
compound: FC(F)(c1cccnc1)c1ccc2c(c1)Nc1nccnc1S2
melting point: 183 to 184 °C
--
compound: CS(=O)(=O)NCC1CCN(Cc2ccc3c(c2)Nc2nccnc2S3)CC1
melting point: 218 to 221 °C
--
compound: CC(C)(CCCCc1ccc(NCc2ccc3c(c2)Nc2nccnc2S3)cn1)C(=O)O
melting point: 158 to 161 °C
--
compound: Cl.c1cnc2c(n1)Nc1cc(CC3=NCCCN3)ccc1S2
melting point: > 280 °C

Consider the compound shown here: OCC(O)CN1c2ccccc2Nc2nccnc21 (stereo not shown) What is its recorded melting point?
191 to 194 °C

Proceed to NC(=O)OC1CCN(Cc2ccc3c(c2)Nc2nccnc2S3)CC1
139 to 142 °C

One more compound: CS(=O)(=O)N=CNc1ccc(-c2cn(Cc3ccc4c(c3)Nc3nccnc3S4)cn2)cc1
159 to 162 °C

Item: CS(=O)(=O)/N=C/N1CCN(C(=N)Cc2ccc3c(c2)Nc2nccnc2S3)CC1.Cl
215 to 218 °C

Proceed to CNc1c(N2CCN(Cc3ccc4c(c3)Nc3nccnc3S4)CC2)c(=O)c1=O
> 300 °C

* * *

Below, each of the compounds is paired with its reported melting point value.

compound: CC(=NC#N)N1CCN(Cc2ccc3c(c2)Nc2nccnc2S3)CC1
melting point: 234 °C (dec.)
//
compound: c1csc(NCc2ccc3c(c2)Nc2nccnc2S3)n1
melting point: 230 to 235 °C
//
compound: CC1CCCC(C)N1Cc1ccc2c(c1)Nc1nccnc1S2 (centres unmarked)
melting point: 168 to 172 °C
//
compound: O=C(O)CC1CC2CN(Cc3ccc4c(c3)Nc3nccnc3S4)CC2C1 (centres unmarked) [711]
melting point: 112 to 117 °C
//
compound: O=S(=O)(NC1CCN(Cc2ccc3c(c2)Nc2nccnc2S3)CC1)C(F)(F)F
melting point: 199 to 201 °C

Need melting point, item c1ccn(Cc2ccc3c(c2)Nc2nccnc2S3)c1
197 to 198 °C

How about CC(=O)N(Cc1ccc2c(c1)Nc1nccnc1S2)c1cccnc1 ?
212 to 214 °C

Consider next the compound O=C1OCCC1=C1CCN(Cc2ccc3c(c2)Nc2nccnc2S3)CC1 in the same way.
159 to 162 °C

Also check O=c1ccn(Cc2ccc3c(c2)Nc2ccncc2S3)cc1
168 °C (dec.)

Here is the next compound: CS(=O)(=O)NC1CCN(Cc2ccc3c(c2)Nc2nccnc2O3)CC1
241 to 243 °C

Here is the next compound: CC(CCC1CCN(Cc2ccc3c(c2)Nc2ncccc2S3)CC1)C(=O)O (centres unmarked)
113 to 115 °C

* * *

system: Carrageenin-induced Rat Pleurisy; experiment: Effect on carrageenin-induced rat pleurisy; type: in vivo; details: Rattus norvegicus, po, 5 h, total cell count in pleural exudate 5 hours after carrageenin; dose 30 mg/kg orally 30 minutes before carrageenin; read-out: Inhibitory ratio (%)
measured-parameter: inhibition in vivo at 30 mg/kg (%)
Report the value in % with no unit label.

// below: answered compounds
compound: O=C(O)CC1C2CCCC1CN(Cc1ccc3c(c1)Nc1nccnc1S3)C2 (stereo not shown) [Example 1568]
test-system: Carrageenin-induced Rat Pleurisy
inhibition in vivo at 30 mg/kg (%): 50
--
compound: c1cncc(NCc2ccc3c(c2)Nc2nccnc2S3)c1 [Example 901]
test-system: Carrageenin-induced Rat Pleurisy
inhibition in vivo at 30 mg/kg (%): 38
--
compound: N#C/N=C(\N)Cc1ccc2c(c1)Nc1nccnc1S2 [Example 1487]
test-system: Carrageenin-induced Rat Pleurisy
inhibition in vivo at 30 mg/kg (%): 32

What inhibition in vivo at 30 mg/kg value was documented for this compound, CC(C)(O)c1ncnc2c1ncn2Cc1ccc2c(c1)Nc1nccnc1S2 [Example 1439] ?
77
